Biological target: human CTLA-4 (human) (UniProt P16410)
Sequence (P16410 36-223): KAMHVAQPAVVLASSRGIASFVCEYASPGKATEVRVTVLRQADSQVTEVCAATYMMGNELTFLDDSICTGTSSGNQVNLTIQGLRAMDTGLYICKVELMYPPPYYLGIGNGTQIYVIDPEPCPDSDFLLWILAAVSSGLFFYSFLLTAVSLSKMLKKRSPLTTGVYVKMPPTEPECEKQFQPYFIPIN
Assay: flow cytometry, CHO cells expressing huCTLA4; MFI ratio to WT CD80 ECD-Fc (R&D)
measured_attribute: Fold change to WT CD80 (fold)

>>> observed_value("variant CD80 IgV-Fc Q33K/E35D/D46V/L85Q (Fc fusion) VIHVTKEVKEVATLSCGHNVSVEELAQTRIYWKKDKKMVLTMMSGVMNIWPEYKNRTIFDITNNLSIVILALRPSDEGTYECVVQKYEKDAFKREHLAEVTLSVKAD")
0.05
>>> observed_value("variant CD80 IgV-Fc Q33L/E35D/M47V/L85Q (Fc fusion) VIHVTKEVKEVATLSCGHNVSVEELAQTRIYWLKDKKMVLTMMSGDVNIWPEYKNRTIFDITNNLSIVILALRPSDEGTYECVVQKYEKDAFKREHLAEVTLSVKAD")
0.42
>>> observed_value("variant CD80 IgV-Fc Q33L/E35D/N48K/L85Q/L97Q (Fc fusion) VIHVTKEVKEVATLSCGHNVSVEELAQTRIYWLKDKKMVLTMMSGDMKIWPEYKNRTIFDITNNLSIVILALRPSDEGTYECVVQKYEKDAFKREHQAEVTLSVKAD")
0.01
>>> observed_value("variant CD80 IgV-Fc A26E/Q33R/E35D/M47L/L85Q/K86E (Fc fusion) VIHVTKEVKEVATLSCGHNVSVEELEQTRIYWRKDKKMVLTMMSGDLNIWPEYKNRTIFDITNNLSIVILALRPSDEGTYECVVQEYEKDAFKREHLAEVTLSVKAD")
0.01
>>> observed_value("variant CD80 IgV-Fc Q33L/E35D/M47L/A71G/F92S (Fc fusion) VIHVTKEVKEVATLSCGHNVSVEELAQTRIYWLKDKKMVLTMMSGDLNIWPEYKNRTIFDITNNLSIVILGLRPSDEGTYECVVLKYEKDASKREHLAEVTLSVKAD")
0.01
